Assignment: determine reported pIC50 for the given compounds.
Biological target: ACAT 2 (Mus musculus)
Construct: The source of ACAT 2 enzyme used was a membrane fraction derived from mouse liver microsome; from tissue; host or cells: mouse liver (microsome fraction)
Sequence (O88908 1-525): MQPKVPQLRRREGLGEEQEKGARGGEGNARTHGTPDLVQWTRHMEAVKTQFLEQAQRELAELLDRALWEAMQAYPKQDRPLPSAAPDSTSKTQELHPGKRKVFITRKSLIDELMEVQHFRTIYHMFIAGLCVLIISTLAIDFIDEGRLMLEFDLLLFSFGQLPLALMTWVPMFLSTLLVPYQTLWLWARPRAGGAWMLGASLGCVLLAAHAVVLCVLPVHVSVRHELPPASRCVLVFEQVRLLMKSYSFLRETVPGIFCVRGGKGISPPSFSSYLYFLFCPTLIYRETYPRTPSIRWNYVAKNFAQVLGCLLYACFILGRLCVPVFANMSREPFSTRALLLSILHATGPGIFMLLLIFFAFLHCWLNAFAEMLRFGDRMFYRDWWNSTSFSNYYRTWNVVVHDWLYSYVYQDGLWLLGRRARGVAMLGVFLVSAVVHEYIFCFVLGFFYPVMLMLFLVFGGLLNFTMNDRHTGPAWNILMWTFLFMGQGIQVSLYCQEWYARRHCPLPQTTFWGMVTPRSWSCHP
Experiment: ACAT-inhibiting activity, mouse liver microsome membrane fraction, [14C]oleoyl-CoA
Assay type: biochemical
Details: mouse liver microsome, 5 minutes at 37° C.
pIC50: −log10 of the molar value.

Known results for compounds:
COMPOUND	pIC50
CC(=O)OCC1(C)C2C[C@H](OC(=O)Oc3ccccc3)[C@@]3(C)Oc4cc(-c5cccnc5)oc(=O)c4[C@H](O)C3[C@@]2(C)CC[C@@H]1OC(C)=O (some centres unmarked)	7.00 to 8.00
CC(=O)OCC1(C)C2C[C@H](OC(=O)c3ccccc3Cl)[C@@]3(C)Oc4cc(-c5cccnc5)oc(=O)c4[C@H](O)C3[C@@]2(C)CC[C@@H]1OC(C)=O (some centres unmarked)	7.00 to 8.00
CC(=O)OCC1(C)C2C[C@H](OC(=O)c3cccc(F)c3)[C@@]3(C)Oc4cc(-c5cccnc5)oc(=O)c4[C@H](O)C3[C@@]2(C)CC[C@@H]1OC(C)=O (some centres unmarked)	> 8.00

# return pIC50 for each item in the list
1. CC12COC(c3ccccc3)O[C@H]1CC[C@@]1(C)C2C[C@H](OC(=O)c2cccc(F)c2)[C@@]2(C)Oc3cc(-c4cccnc4)oc(=O)c3[C@H](O)C12 (some centres unmarked)
2. CC(=O)OCC1(C)C2C[C@H](OC(=O)c3ccc(-c4ccccc4)cc3)[C@@]3(C)Oc4cc(-c5cccnc5)oc(=O)c4[C@H](O)C3[C@@]2(C)CC[C@@H]1OC(C)=O (some centres unmarked)
3. CC12COC(c3ccccc3)O[C@H]1CC[C@@]1(C)C2C[C@H](OC(=O)c2ccc(Cl)cc2)[C@@]2(C)Oc3cc(-c4cccnc4)oc(=O)c3[C@H](O)C12 (some centres unmarked)
4. CC(=O)OCC1(C)C(OC(C)=O)CC[C@@]2(C)C1C[C@H](OC(=O)c1ccc(C(N)=O)cc1)[C@@]1(C)Oc3cc(-c4cccnc4)oc(=O)c3[C@H](O)C21 (some centres unmarked)
5. CC(=O)OCC1(C)C2C[C@H](OC(=O)c3ccc(=O)oc3)[C@@]3(C)Oc4cc(-c5cccnc5)oc(=O)c4[C@H](O)C3[C@@]2(C)CC[C@@H]1OC(C)=O (some centres unmarked)
6. CC12COC(c3ccccc3)O[C@H]1CC[C@@]1(C)C2C[C@H](OC(=O)c2cccc(Cl)c2)[C@@]2(C)Oc3cc(-c4cccnc4)oc(=O)c3[C@H](O)C12 (some centres unmarked)

7.00 to 8.00
6.00 to 7.00
7.00 to 8.00
6.00 to 7.00
6.00 to 7.00
7.00 to 8.00

# return pIC50 for each item in the list
1. CC(=O)OCC1(C)C2C[C@@H](I)[C@@]3(C)Oc4cc(-c5cccnc5)oc(=O)c4[C@H](O)C3[C@@]2(C)CC[C@@H]1OC(C)=O (stereo partly drawn) [PRD 064, 7-(R)-iodo-7-(S)-deacetylpyripyropene A]
2. CC(=O)OCC1(C)C2C[C@H](OC(=O)Cc3nnn[nH]3)[C@@]3(C)Oc4cc(-c5cccnc5)oc(=O)c4[C@H](O)C3[C@@]2(C)CC[C@@H]1OC(C)=O (some centres unmarked)

["6.00 to 7.00", "6.00 to 7.00"]
